- test details: Initial plasma concentration in C3H/HeN mouse at 0.625 mg/kg, iv
- Type: ADME, organism-based
- Set-up: dose 0.625 mg/kg, route intravenous
property label: C0 (ng/mL)
Report as a plain number; the unit ng/mL is understood.

Ask: Tell me the measured C0 of `N#Cc1ccc(-c2ccc(O[C@H]3O[C@H](CO)[C@@H](O)[C@H](O)[C@@H]3O)c(Cl)c2)cc1` , please.
Reply: 360

---

- test details: Displacement of fluorescently labeled 3'-chloro-N-(2-(3-(3',6'-dihydroxy-3-oxo-3H-spiro[isobenzofuran-1,9'-xanthene]-5-yl)thioureido)ethyl)-4'-((2R,3S,4S,5S,6R)-3,4,5-trihydroxy-6-(hydroxymethyl)tetrahydro-2H-pyran-2-yloxy)biphenyl-4-carboxamide from Escherichia coli recombinant 6-His-tagged FimH CRD expressed in Escherichia coli HM125 after 24 hrs by fluorescence polarization assay
property label: Kd (nM)
Report as a plain number; the unit nM is understood.

Solved cases (3 shown):
CS(=O)(=O)c1ccc(-c2ccc(O[C@H]3O[C@H](CO)[C@@H](O)[C@H](O)[C@@H]3O)cc2)cc1: 1.7
O=C(O)c1ccc(-c2ccc(O[C@H]3O[C@H](CO)[C@@H](O)[C@H](O)[C@@H]3O)cc2)cc1: 17.9
OC[C@H]1O[C@H](Oc2ccc(-c3ccccc3)cc2)[C@@H](O)[C@@H](O)[C@@H]1O: 15.1

# context switch: different compound, same Kd
Ask: Tell me the measured Kd of `CNC(=O)c1ccc(-c2ccc(O[C@H]3O[C@H](CO)[C@@H](O)[C@H](O)[C@@H]3O)cc2)cc1` , please.
Reply: 2.9

---

- test details: AUC (0 to infinity) in C3H/HeN mouse at 0.625 mg/kg, iv
- Type: ADME, organism-based
- Design: time infinity, dose 0.625 mg/kg, route intravenous
- condition details: plasma
property label: AUC(0-inf) (ng·h/mL)
Report as a plain number; the unit ng·h/mL is understood.

Ask: Tell me the measured AUC(0-inf) of `N#Cc1ccc(-c2ccc(O[C@H]3O[C@H](CO)[C@@H](O)[C@H](O)[C@@H]3O)c(Cl)c2)cc1` , please.
Reply: 70

---

- test details: Binding affinity to Escherichia coli recombinant 6-His-tagged FimH CRD expressed in Escherichia coli HM125 after 24 hrs by competitive fluorescence polarization assay
property label: pKd
Please express pKd as -log10 of the molar concentration.

O=C(NCCNC(=S)Nc1ccc2c(c1)C(=O)OC21c2ccc(O)cc2Oc2cc(O)ccc21)c1ccc(-c2ccc(O[C@H]3O[C@H](CO)[C@@H](O)[C@H](O)[C@@H]3O)c(Cl)c2)cc1: 8.77

# context switch: different molecule, same pKd
Ask: Tell me the measured pKd of `O=C(NCCOCCOCCNC(=S)Nc1ccc2c(c1)C(=O)OC21c2ccc(O)cc2Oc2cc(O)ccc21)c1ccc(-c2ccc(O[C@H]3O[C@H](CO)[C@@H](O)[C@H](O)[C@@H]3O)c(Cl)c2)cc1` , please.
Reply: 8.00

---

- test details: physchem
- condition details: buffer, pH 7.4
- Description: Kinetic solubility of the compound at 0.1 to 0.5 mM at pH 7.4 after 15 hrs by UV/Vis spectrophotometry
Each entry below lists one item and its recorded log10 of solubility kinetic at 15 h, 500 µM value.
Field: value | Transform: log10 | Quantity: solubility kinetic at 15 h, 500 µM | Unit: µg/mL

NC(=O)c1ccc(-c2ccc(O[C@H]3O[C@H](CO)[C@@H](O)[C@H](O)[C@@H]3O)cc2)cc1: 1.08
N#Cc1ccc(-c2ccc(O[C@H]3O[C@H](CO)[C@@H](O)[C@H](O)[C@@H]3O)c(Cl)c2)cc1: 2.28
CNC(=O)c1ccc(-c2ccc(O[C@H]3O[C@H](CO)[C@@H](O)[C@H](O)[C@@H]3O)cc2)cc1: 2.09
OC[C@H]1O[C@H](Oc2ccc(-c3ccccc3)cc2)[C@@H](O)[C@@H](O)[C@@H]1O: 1.32

# context switch: different compound, same log10 of solubility kinetic at 15 h, 500 µM
Ask: Tell me the measured log10 of solubility kinetic at 15 h, 500 µM of `CS(=O)(=O)c1ccc(-c2ccc(O[C@H]3O[C@H](CO)[C@@H](O)[C@H](O)[C@@H]3O)cc2)cc1` , please.
Reply: 2.39

---

- test details: Kinetic solubility of the compound at 0.1 to 0.5 mM at pH 6.61 after 15 hrs by UV/Vis spectrophotometry
- Assay type: physicochemical
- condition details: buffer, read-out: Kinetic_solubility
property label: solubility kinetic at 15 h

Ask: Tell me the measured solubility kinetic at 15 h of `O=C(O)c1ccc(-c2ccc(O[C@H]3O[C@H](CO)[C@@H](O)[C@H](O)[C@@H]3O)cc2)cc1` , please.
Reply: > 3000 µg/mL

---

- test details: Displacement of n-heptyl 2-deoxy-alpha-D-mannopyranoside from Escherichia coli recombinant 6-His-tagged FimH CRD expressed in Escherichia coli HM125 after 20 mins by isothermal titration calorimetry
Each entry below lists one item and its recorded pKd value.
Please express pKd as -log10 of the molar concentration.

CNC(=O)c1ccc(-c2ccc(O[C@H]3O[C@H](CO)[C@@H](O)[C@H](O)[C@@H]3O)cc2)cc1: 8.37

Ask: Tell me the measured pKd of `N#Cc1ccc(-c2ccc(O[C@H]3O[C@H](CO)[C@@H](O)[C@H](O)[C@@H]3O)cc2)cc1` , please.
Reply: 8.55

Ask: Tell me the measured pKd of `N#Cc1ccc(-c2ccc(O[C@H]3O[C@H](CO)[C@@H](O)[C@H](O)[C@@H]3O)c(Cl)c2)cc1` , please.
Reply: 8.89

Ask: Tell me the measured pKd of `CNS(=O)(=O)c1ccc(-c2ccc(O[C@H]3O[C@H](CO)[C@@H](O)[C@H](O)[C@@H]3O)cc2)cc1` , please.
Reply: 8.46

Ask: Tell me the measured pKd of `O=C(c1ccc(-c2ccc(O[C@H]3O[C@H](CO)[C@@H](O)[C@H](O)[C@@H]3O)cc2)cc1)N1CCOCC1` , please.
Reply: 8.30

Ask: Tell me the measured pKd of `CS(=O)(=O)c1ccc(-c2ccc(O[C@H]3O[C@H](CO)[C@@H](O)[C@H](O)[C@@H]3O)cc2)cc1` , please.
Reply: 8.52

---

Each entry below lists one item and its recorded Papp A→B value.
- test details: Apparent permeability across apical to basolateral side in human Caco2 cells by LC/MS analysis
- condition details: Caco-2
Report as a plain number; the unit ×10⁻⁶ cm/s is understood.

OC[C@H]1O[C@H](Oc2ccc(-c3cc(F)c(O)c(F)c3)cc2)[C@@H](O)[C@@H](O)[C@@H]1O: 0.4

Ask: Tell me the measured Papp A→B of `OC[C@H]1O[C@H](Oc2ccc(-c3ccccc3)cc2)[C@@H](O)[C@@H](O)[C@@H]1O` , please.
Reply: 10

Ask: Tell me the measured Papp A→B of `N#CNC(=O)c1ccc(-c2ccc(O[C@H]3O[C@H](CO)[C@@H](O)[C@H](O)[C@@H]3O)cc2)cc1` , please.
Reply: 0.22

Ask: Tell me the measured Papp A→B of `CNC(=O)c1ccc(-c2ccc(O[C@H]3O[C@H](CO)[C@@H](O)[C@H](O)[C@@H]3O)cc2)cc1` , please.
Reply: 1.1

Ask: Tell me the measured Papp A→B of `NC(=O)c1ccc(-c2ccc(O[C@H]3O[C@H](CO)[C@@H](O)[C@H](O)[C@@H]3O)cc2)cc1` , please.
Reply: 0.12

Ask: Tell me the measured Papp A→B of `CS(=O)(=O)c1ccc(-c2ccc(O[C@H]3O[C@H](CO)[C@@H](O)[C@H](O)[C@@H]3O)cc2)cc1` , please.
Reply: 0.36

Ask: Tell me the measured Papp A→B of `N#Cc1ccc(-c2ccc(O[C@H]3O[C@H](CO)[C@@H](O)[C@H](O)[C@@H]3O)c(Cl)c2)cc1` , please.
Reply: 2.2

Ask: Tell me the measured Papp A→B of `N#Cc1ccc(-c2ccc(O[C@H]3O[C@H](CO)[C@@H](O)[C@H](O)[C@@H]3O)cc2)cc1` , please.
Reply: 2

Ask: Tell me the measured Papp A→B of `COC(=O)c1ccc(-c2ccc(O[C@H]3O[C@H](CO)[C@@H](O)[C@H](O)[C@@H]3O)cc2)cc1` , please.
Reply: 4.23

Ask: Tell me the measured Papp A→B of `O=C(c1ccc(-c2ccc(O[C@H]3O[C@H](CO)[C@@H](O)[C@H](O)[C@@H]3O)cc2)cc1)N1CCOCC1` , please.
Reply: 0.18

Ask: Tell me the measured Papp A→B of `CCCCCCCO[C@H]1O[C@H](CO)[C@@H](O)[C@H](O)[C@@H]1O` , please.
Reply: 7

---

Each entry below lists one item and its recorded pKa value.
- test details: Dissociation constant, pKa of the compound by NMR spectroscopy
- Format: physicochemical

Solved cases (2 shown):
N#CNC(=O)c1ccc(-c2ccc(O[C@H]3O[C@H](CO)[C@@H](O)[C@H](O)[C@@H]3O)cc2)cc1: 2.5
OC[C@H]1O[C@H](Oc2ccc(-c3cc(F)c(O)c(F)c3)cc2)[C@@H](O)[C@@H](O)[C@@H]1O: 6.5

# context switch: different molecule, same pKa
Ask: Tell me the measured pKa of `OC[C@H]1O[C@H](Oc2ccc(-c3ccc(-c4nnn[nH]4)cc3)cc2)[C@@H](O)[C@@H](O)[C@@H]1O` , please.
Reply: 3.7

Data provenance is ChEMBL document CHEMBL3414523.
